- target_desc: T1, human FcRn/b2M (human, UniProt P61769 21-119, biotinylated)
- T1 construct: bought recombinant biotinylated protein (ACRO FCM-H82W4 or Immunitrack ITF01); also called hFcRn; hFcRn/hb2M
- assay_explanation: SPR off-rate; pH 7.4 vs pH 6.0;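 note: surface plasmon resonance with diluted periplasmic extracts flowed over ligand surfaces, 120 s association and 600–3600 s dissociation at 25 °C, running buffer containing 150 mM NaCl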
readout: kd ratio pH 7.4/6.0

Query: I have this binder here, T0263018B11 A94S (VHH, name in Kabat numbering, FLAG3-His6 tagged) VHH: EVQLVESGGGVVQPGGSLRLSCAASGFTFSSYAMYWVRQAPGKGLEWVSAISSGGGSTDYADSVKGRFTISRDNSKNTLYLQMNSLRPEDTALYYCASDTLYTSLTWYSYWGQGTLVTVSS , and I need its recorded kd ratio pH 7.4/6.0.
Result: 35

Query: I have this binder here, T0263018B11 S30Q (VHH, name in Kabat numbering, FLAG3-His6 tagged) VHH: EVQLVESGGGVVQPGGSLRLSCAASGFTFQSYAMYWVRQAPGKGLEWVSAISSGGGSTDYADSVKGRFTISRDNSKNTLYLQMNSLRPEDTALYYCAADTLYTSLTWYSYWGQGTLVTVSS , and I need its recorded kd ratio pH 7.4/6.0.
Result: 42
